Molecular target: T1, recombinant RSV protein G, G(B): residues 66-292 of strain 18537 (human respiratory syncytial virus …, UniProt P20896 66-292)
T1 construct: also called soluble recombinant G protein; recombinant protein G
T1 sequence: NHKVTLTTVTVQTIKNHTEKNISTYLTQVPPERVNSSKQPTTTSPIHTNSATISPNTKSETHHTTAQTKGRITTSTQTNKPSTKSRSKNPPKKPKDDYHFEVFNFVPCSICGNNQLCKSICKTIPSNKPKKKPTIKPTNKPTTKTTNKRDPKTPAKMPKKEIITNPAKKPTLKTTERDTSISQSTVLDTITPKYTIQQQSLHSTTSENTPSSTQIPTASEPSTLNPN
Assay: SPR Biacore 3000, Fab over amine-coupled recombinant protein G
// values below are reported Kd
A number alone suffices; assume nM.

Study these solved cases before continuing.
Fab fragment of antibody 796 (Fab, also called Fab clone 796) VH: QVQLVESGGGVVQPGRSLRLSCAASGFSFSHFGMHWVRQVPGKGLEWVAIISYDGNNVHYADSVKGRFTISRDNSKNTLFLQMNSLRDDDTGVYYCAKDDVATDLAAYYYFDVWGRGTLVTVSS light: DIVMTQTPLSLSVTPGQPASISCRSSQSLLRSDGKTFLYWYLQKPGQSPQPLMYEVSSRFSGVPDRFSGSGSGADFTLNISRVETEDVGIYYCMQGLKIRRTFGPGTKVEIKRTVAAPSVFIFPPSDEQLKSGTASVVCLLNNFYPREAKVQWKVDNALQSGNSQESVTEQDSKDSTYSLSSTLTLSKADYEKHKVYACEVTHQGLSSPVTKSFNRGEC    0.48
Fab fragment of antibody 859 (Fab, also called Fab clone 859) VH: QVQLVESGGGVVQPGRSLRLSCAVSGSSFSKYGIHWVRQAPGKGLEWVAVISYDGSKKYFTDSVKGRFTIARDNSQNTVFLQMNSLRAEDTAVYYCATGGGVNVTSWSDVEHSSSLGYWGLGTLVTVSS light: DIQMTQSPSSLSASVGDRVTITCRASQGIRNYLAWYQQKPGKVPKLLVFAASTLQSGVPSRFSGSGSGTDFTLTISSLQPEDVATYYCQRYNSAPLTFGGGTKVEIKRTVAAPSVFIFPPSDEQLKSGTASVVCLLNNFYPREAKVQWKVDNALQSGNSQESVTEQDSKDSTYSLSSTLTLSKADYEKHKVYACEVTHQGLSSPVTKSFNRGEC    0.12
Fab fragment of antibody 838 (Fab, also called Fab clone 838) VH: QVQLVESGGGVVQPGTSLRLSCAASGFTFSTFGMHWVRQAPGKGLEWVAVISYDGNKKYYADSVKGRFTISRDNSKNTLYLQVNSLRVEDTAVYYCAAQTPYFNESSGLVPDWGQGTLVTVSS light: DIQMTQSPSSLSASVGDRVSITCRASQGISNYLAWYQQKPGKVPKLLIYAASTLQSGVPSRFSGSGSGTDFTLTISSLQPEDVATYYCQKYNSAPQTFGQGTKVEIKRTVAAPSVFIFPPSDEQLKSGTASVVCLLNNFYPREAKVQWKVDNALQSGNSQESVTEQDSKDSTYSLSSTLTLSKADYEKHKVYACEVTHQGLSSPVTKSFNRGEC    0.19

Now look at this one.
Kd recorded for this binder, Fab fragment of antibody 816 (Fab) VH: EVQLLESGGGLVQPGGSLRLSCVASGFTFSTYAMTWVRQAPGKGLEWVSVIRASGDSEIYADSVRGRFTISRDNSKNTVFLQMDSLRVEDTAVYFCANIGQRRYCSGDHCYGHFDYWGQGTLVTVSS light: DIVMTQSPLSLPVTPGEPASISCRSSQSLLHSDGRYYVDWYLQKPGQSPHLLIYLASNRASGVPDRFTGSGSGTDFTLKISRVEAEDVGVYYCMQGLHTPWTFGQGTKVDIKRTVAAPSVFIFPPSDEQLKSGTASVVCLLNNFYPREAKVQWKVDNALQSGNSQESVTEQDSKDSTYSLSSTLTLSKADYEKHKVYACEVTHQGLSSPVTKSFNRGEC , is 0.09
